Hi there, I'd appreciate the recorded cell viability for every entry that follows.
# System: DLD1
# assay-summary: cell viability (CellTiter-Glo) relative to plate median (fraction of plate median); higher = more viable cells
# assay-context: 5 µM; treatment time 24 h; reporter: 7TFP
Please state the value as a number alone, without comment.

input: So what does the record say about cell viability for `Cc1ccc(N(CC2=NCCN2)c2cccc(O)c2)cc1` ?
output: 1.01

input: So what does the record say about cell viability for OCCOCCN1CCN(C(c2ccccc2)c2ccc(Cl)cc2)CC1 (stereo not drawn) ?
output: 0.978

input: So what does the record say about cell viability for CC(=O)O[C@H]1CC[C@]2(C)C(C[C@@H](OC(C)=O)[C@]3(C)C4=CC(=O)O[C@H](c5ccoc5)[C@@]4(C)CCC23)C1(C)C (stereo partly drawn) [3-DEOXO-3beta-ACETOXYDEOXYDIHYDROGEDUNIN] ?
output: 1

input: So what does the record say about cell viability for `C[N+](C)(C)CCOC(N)=O` ?
output: 0.994

input: So what does the record say about cell viability for CC(C)c1c(O)c(-c2cc3c(c(C(C)C)c2O)CCC2C(C)(C)CCC[C@]32C)cc2c1CCC1C(C)(C)CCC[C@]21C (stereo partly drawn) ?
output: 1.02

input: So what does the record say about cell viability for `CCn1cc(C(=O)O)c(=O)c2cnc(N3CCNCC3)nc21` ?
output: 0.976

input: So what does the record say about cell viability for `COc1ccc2c(=O)ccoc2c1` ?
output: 0.979

input: So what does the record say about cell viability for `O=C(CCc1ccc(O)cc1)c1c(O)cc(O)cc1O` ?
output: 0.974

input: So what does the record say about cell viability for `CNC[C@H](O)c1cccc(O)c1` ?
output: 1.02

input: So what does the record say about cell viability for `O=C1C=CC(=C(c2ccc(O)cc2)c2ccc(O)cc2)C=C1` ?
output: 0.99

input: So what does the record say about cell viability for `CC(C)(C)CC(C)(C)c1ccc(O)c(Cc2ccc(Cl)cc2Cl)c1` ?
output: 0.987

input: So what does the record say about cell viability for `C[C@]12C=CC(=O)C=C1CC[C@H]1[C@@H]3C[C@@H](O)[C@](O)(C(=O)CO)[C@@]3(C)C[C@H](O)[C@@]12F` ?
output: 0.999

input: So what does the record say about cell viability for `Clc1ccccc1CN1CCc2sccc2C1` ?
output: 0.988

* * *

# Test system: SW480
# assay-summary: cell viability (CellTiter-Glo) relative to plate median (fraction of plate median); higher = more viable cells
# assay-context: 5 µM; treatment time 24 h; reporter: 7TFP
Hi there, I'd appreciate the recorded cell viability for every entry that follows.
Please state the value as a number alone, without comment.

input: So what does the record say about cell viability for O=c1occ(C(O)CO)c2cccc(O)c12 (stereo not given) ?
output: 0.976

input: So what does the record say about cell viability for CC1(C)C=CC(=O)[C@@]2(C)C1CC(=O)[C@]1(C)C2CC[C@@]2(C)[C@H](c3ccoc3)OC(=O)C3OC321 (stereo not given in full) ?
output: 0.998

input: So what does the record say about cell viability for `COc1ccc(-c2oc3cc(OC)c(OC)c(OC)c3c(=O)c2OC)cc1` ?
output: 1.02

input: So what does the record say about cell viability for `C=C(C)[C@@H]1CC[C@]2(CO)CC[C@]3(C)[C@H](CC[C@@H]4[C@@]5(C)CC[C@H](O)C(C)(C)[C@@H]5CC[C@]43C)[C@@H]12` ?
output: 0.978

input: So what does the record say about cell viability for `CCCCCc1c2c(cc(O)c1C(=O)O)OC(=O)c1c(cc(OC)cc1C(=O)CCCC)O2` ?
output: 1

These entries and their values trace back to the supplement of paper PMC6522484.
